Assay: Solubility in clomazone or propylene glycol by visual verification (turbidity)
Format: physicochemical
Conditions: 40 °C, organic solvent or mixture, thermodynamic from solid, Solubility of Hexazinone in Propileneglycol
Procedure: All solubilities mentioned in the present document were measured through visual verification. In a known quantity of clomazone or propylene glycol at a desired temperature, the solute (e.g. hexazinone or diuron) was added at a rate of 0.2g/5min.
QUANTITY_KIND: solubility
Dear colleague, please send the value followed by its unit.

// sample CN(C)c1nc(=O)n(C2CCCCC2)c(=O)n1C , its solubility was 580 mg/mL

----------
assay: Solubility in clomazone or propylene glycol by visual verification (turbidity); type: physicochemical; conditions: 54 °C, organic solvent or mixture, thermodynamic from solid, Solubility of Hexazinone in Clomazone
QUANTITY_KIND: solubility
Dear colleague, please send the value followed by its unit.

// sample CN(C)c1nc(=O)n(C2CCCCC2)c(=O)n1C [Hexazinone] , its solubility was 73 mg/mL

----------
assay: Solubility in clomazone or propylene glycol by visual verification (turbidity); assay type: physicochemical; conditions: 23 °C, organic solvent or mixture, thermodynamic from solid, Solubility of Hexazinone in Propileneglycol
QUANTITY_KIND: solubility
Dear colleague, please send the value followed by its unit.

// sample CN(C)c1nc(=O)n(C2CCCCC2)c(=O)n1C [Hexazinone] , its solubility was 510 mg/mL

----------
assay: Solubility in clomazone or propylene glycol by visual verification (turbidity); type: physicochemical; details: 23 °C, organic solvent or mixture, thermodynamic from solid; 23 °C; read-out: Solubility of Diuron in Clomazone
QUANTITY_KIND: solubility (mg/mL)
Write the number in mg/mL without appending the unit.

// sample CN(C)C(=O)Nc1ccc(Cl)c(Cl)c1 [Diuron] , its solubility was 28

----------
assay: Solubility in clomazone or propylene glycol by visual verification (turbidity); type: physicochemical; settings: 40 °C, organic solvent or mixture, thermodynamic from solid; 40 °C; read-out: Solubility of Diuron in Clomazone
QUANTITY_KIND: solubility (mg/mL)
Write the number in mg/mL without appending the unit.

// sample CN(C)C(=O)Nc1ccc(Cl)c(Cl)c1 [Diuron] , its solubility was 36

----------
experiment: Solubility in clomazone or propylene glycol by visual verification (turbidity); format: physicochemical; conditions: 54 °C, organic solvent or mixture, thermodynamic from solid, Solubility of Hexazinone in Propileneglycol
QUANTITY_KIND: solubility (mg/mL)
Write the number in mg/mL without appending the unit.

// sample CN(C)c1nc(=O)n(C2CCCCC2)c(=O)n1C , its solubility was 630

----------
test: Solubility in clomazone or propylene glycol by visual verification (turbidity); format: physicochemical; conditions: 40 °C, organic solvent or mixture, thermodynamic from solid, Solubility of Hexazinone in Clomazone
QUANTITY_KIND: solubility (mg/mL)
Write the number in mg/mL without appending the unit.

// sample CN(C)c1nc(=O)n(C2CCCCC2)c(=O)n1C , its solubility was 62
